Target: HLA-B*0702 (human)
Assay: iTopia net score
Record form. Attribute: iScore. Fill in for each entry.

Just so you know, measured iScore for EQRTKYRSL [cdr2 442-450 EQRTKYRSL] came out at 0.031

Just so you know, measured iScore for LVLKENSEL [cdr2 225-233 LVLKENSEL] came out at 0.054

Just so you know, measured iScore for AYRARALEL [cdr2 242-250 AYRARALEL] came out at 0.033

Just so you know, measured iScore for VPESHRKPL [cdr2 298-306 VPESHRKPL] came out at 0.22
